compounds and their reported compound extinction coefficient ε
experiment: UV absorbance: extinction coefficient at wavelength of maximum absorbency
Assay type: physicochemical
test-conditions: at λmax
Lab book: enter the figure in OD/M × cm, no units written.

Sample records with compound extinction coefficient ε:
[[record]]
item_smiles = "COc1ccc(S)cc1OC"
reported_endpoint = "compound extinction coefficient ε"
assay_result = 4300

[[record]]
item_smiles = "Cc1cccc2[nH]c(S)nc12"
reported_endpoint = "compound extinction coefficient ε"
assay_result = 6300


// returns reported compound extinction coefficient ε for input COc1ccc(OC)c(S)c1
2700

// returns reported compound extinction coefficient ε for input CC(=O)Nc1ccc(SC(C)=O)cc1
3300

// returns reported compound extinction coefficient ε for input COc1cccc2[nH]c(S)nc12
10000

###

Test system: Mel-Ab melanocytes
experiment: mammalian-melanocyte-culture toxicity assay system
Format: cell-based, mouse
test-conditions: Mus musculus, Mel-Ab, read-out: T: concentration of compound that kills 50% of cells in the mammalian-melanocyte-culture toxicity assay system
compounds and their reported IC50

Lookup: IC50 / Mel-Ab melanocytes / COC(=O)c1cccc(N)c1 [ID # 092]
> 1 mM

Lookup: IC50 / Mel-Ab melanocytes / NCCc1cccs1 [ID # 073]
> 1 mM

Lookup: IC50 / Mel-Ab melanocytes / COc1ccc(C(N)=S)cc1 [ID # 100]
> 1 mM
